- METHOD_NOTES: Hydrolysis in human articular synovia
- Type: in vitro ADME
- EXPERIMENTAL_PARAMETERS: human, articular synovia, patient three (Osteoarthritis); 60 minutes at 37° C.; read-out: Hydrolysis rate
Each entry below carries its recorded metabolised at 1 h.

[
  {
    "MOLECULE": "CC(=O)OCOC(=O)C(C)c1ccc(-c2ccccc2)c(F)c1 (centres unmarked)",
    "UNIT_NAME": "%",
    "metabolised at 1 h": 64.7
  },
  {
    "MOLECULE": "CCOC(=O)C(C)c1ccc(-c2ccccc2)c(F)c1 (centres unmarked)",
    "UNIT_NAME": "%",
    "metabolised at 1 h": 0
  }
]

###

- METHOD_NOTES: Hydrolysis in human articular synovia
- Type: in vitro ADME
- EXPERIMENTAL_PARAMETERS: human, articular synovia, patient four (Rheumatoid); 60 minutes at 37° C.; read-out: Hydrolysis rate
READOUT_TYPE: metabolised at 1 h (%)

[
  {
    "MOLECULE": "CCOC(=O)C(C)c1ccc(-c2ccccc2)c(F)c1 (centres unmarked)",
    "UNIT_NAME": "%",
    "QUANTITATIVE_READOUT": 0
  },
  {
    "MOLECULE": "CC(=O)OCOC(=O)C(C)c1ccc(-c2ccccc2)c(F)c1 (centres unmarked)",
    "UNIT_NAME": "%",
    "QUANTITATIVE_READOUT": 64.1
  }
]
